Reported values of IC50 for individual entries
Test summary: In vitro inhibition of prostaglandin E2 production in cultured chondrocytes
Type: functional, cell-based
Respond with the bare value in nM.

Would you please look over these solved cases?
Quick note, IC50 for CCC1(CC(=O)O)OCCc2c1[nH]c1ccccc21 (stereo not given) landed at 100

Quick note, IC50 for CCc1cccc2c3c([nH]c12)C(CC)(CC(=O)O)CCC3 (stereo not given) landed at 20

Quick note, IC50 for CCc1cccc2c3c([nH]c12)C(CC)(CC(=O)O)OCC3 (stereo not given) landed at 23

Quick note, IC50 for CCC1(CC(=O)O)SCCc2c1[nH]c1ccccc21 (stereo not given) landed at 300

Further cases:
Quick note, IC50 for CCc1cccc2c3c([nH]c12)C(CC)(CC(=O)O)COC3 (stereo not given) landed at 50
